// data source = patent US10051861B2

- PROCEDURE_DETAILS: logP by HPLC on reversed-phase columns (C 18), EEC Directive 79/831 Annex V.A8
- Type: physicochemical
- RECORDED_CONDITIONS: reversed-phase C18 HPLC column, pH 7.8, [b] LC-MS, neutral range, pH 7.8, 0.001 molar aqueous ammonium bicarbonate/acetonitrile; read-out: logP(neutral)
Recorded chromatographic logP split into classes L = under 3, M = from 3 up to 4, H = 4 and over

Solved entries:
COMPOUND	CLASS_ASSIGNMENT
Cc1cc(F)c(N=C(N)c2ccccc2F)cc1SCC(F)(F)F [Ia-143]	M
O=C(Nc1cc(SCC(F)(F)F)c(F)cc1Cl)C(F)(F)F [III-7]	M
Cc1cc(F)c(/N=C2\CCCN2CC(F)(F)F)cc1SCC(F)(F)F [Ia-189]	H
Cc1cc(F)c(/N=C(\N)c2cnccn2)cc1[S+]([O-])CC(F)(F)F (stereo not shown) [Ib-62]	L

// query // bin(item) where item = Cc1cc(F)c(/N=C(/Nc2ccc(Cl)cc2)C(F)(F)F)cc1SCC(F)(F)F [Ia-31]
// result H

// query // bin(item) where item = Cc1cc(F)c(/N=C(/NCc2ccc(C(F)(F)F)cc2)C(F)(F)F)cc1SCC(F)(F)F [Ia-89]
// result H

// query // bin(item) where item = Cc1cc(F)c(/N=C(/Nc2ccc(C(F)(F)F)cc2)C(F)(F)F)cc1SCC(F)(F)F [Ia-45]
// result H

// query // bin(item) where item = FC(F)(F)CSc1cc(N=C(Cl)C(F)(F)F)ccc1Cl
// result H

// query // bin(item) where item = Cc1cc(F)c(/N=C(\c2ccc(Cl)s2)N(C)C)cc1SCC(F)(F)F [Ia-149]
// result H

// query // bin(item) where item = N/C(=N/c1ccc(Cl)c([S+]([O-])CC(F)(F)F)c1)C(F)(F)F (stereo not shown) [Ib-108]
// result L

// query // bin(item) where item = Cc1cc(F)c(SCC(F)(F)F)cc1NC(=O)C(F)(F)F [III-4]
// result M

// query // bin(item) where item = COc1ccc(N/C(=N/c2cc(SCC(F)(F)F)c(C)cc2F)C(F)(F)F)cc1 [Ia-129]
// result H

// query // bin(item) where item = CN/C(=N/c1cc(SCC(F)(F)F)c(C)cc1F)c1ccc(OC)cc1 [Ia-165]
// result M

====

- Tested on: greenhouse red spider mite (Tetranychus urticae)
- PROCEDURE_DETAILS: Tetranychus urticae spray test, OP-resistant (TETRUR), bean leaf disks
- Format: in vivo
- RECORDED_CONDITIONS: Tetranychus urticae, foliar, 144 h, application rate 500 g/ha, after 6 days; read-out: efficacy (spider mites killed)
MEASUREMENT_NAME: pest or weed control at 500 g/ha (%)
Give bare numbers, in %.

COMPOUND	EXPERIMENTAL_TARGET	DISPLAY_UNIT	pest or weed control at 500 g/ha
CN/C(=N\c1cc([S+]([O-])CC(F)(F)F)c(Cl)cc1Cl)c1cccnc1 (stereo not drawn)	greenhouse red spider mite (Tetranychus urticae)	%	100

I need pest or weed control at 500 g/ha for every entry listed below, if you could help.
1. Cc1cc(F)c(/N=C(/NCC2CC2)C(F)(F)F)cc1SCC(F)(F)F
2. Cc1cc(C)c([S+]([O-])CC(F)(F)F)cc1/N=C(\NCC(F)(F)F)C1CCCC1 (stereo not drawn)
3. Cc1cc(F)c(/N=C(\NC2CC2)C2CC2)cc1[S+]([O-])CC(F)(F)F (stereo not drawn)
4. FC(F)CN/C(=N\c1cc(SCC(F)(F)F)c(Cl)cc1Cl)C1CCCC1
5. COc1ccc(/C(N)=N\c2cc(SCC(F)(F)F)c(C)cc2F)cc1
6. CCN/C(=N\c1cc(SCC(F)(F)F)c(C)cc1F)c1cccnc1
7. Cc1cc(F)c(/N=C(/NCc2ccccc2)C(F)(F)F)cc1[S+]([O-])CC(F)(F)F (stereo not drawn)
8. Cc1cc(Cl)c([S+]([O-])CC(F)(F)F)cc1/N=C(\N)C1(Cl)CC1 (stereo not drawn)

// result
1. 100
2. 90
3. 100
4. 90
5. 90
6. 100
7. 90
8. 100

====

- PROCEDURE_DETAILS: logP by HPLC on reversed-phase columns (C 18), EEC Directive 79/831 Annex V.A8
- Assay type: physicochemical
- RECORDED_CONDITIONS: reversed-phase C18 HPLC column, pH 7.8, [b] LC-MS, neutral range, pH 7.8, 0.001 molar aqueous ammonium bicarbonate/acetonitrile; read-out: logP(neutral)
Mark rule met for reported chromatographic logP of 4 or greater; mark rule not met for anything smaller.

Solved entries:
COMPOUND	CLASS_ASSIGNMENT
Cc1cc(F)c(/N=C2\CCCN2c2ccccc2)cc1SCC(F)(F)F	rule met
Cc1cc(F)c(/N=C2\SCC(=O)N2CC(F)(F)F)cc1[S+]([O-])CC(F)(F)F (stereo not shown)	rule not met
COc1ccccc1/C(=N\c1cc([S+]([O-])CC(F)(F)F)c(C)cc1F)N(C)C (stereo not shown)	rule not met
Cc1cc(F)c(NC(=O)c2ccc(C(F)(F)F)cc2)cc1SCC(F)(F)F	rule met
O=C(Nc1cc(SSc2cc(NC(=O)C(F)(F)F)c(Cl)cc2F)c(F)cc1Cl)C(F)(F)F	rule not met
Cc1cc(F)c(/N=C(/Nc2ccccc2)C(F)(F)F)cc1[S+]([O-])CC(F)(F)F (stereo not shown)	rule not met
COc1ccc(N/C(=N/c2cc([S+]([O-])CC(F)(F)F)c(C)cc2F)C(F)(F)F)cc1 (stereo not shown)	rule not met
N/C(=N/c1ccc(Cl)c(SCC(F)(F)F)c1)C(F)(F)F	rule not met

Now look at this entry.
// query Is it the case that Cc1cc(F)c(/N=C(\NCC(F)(F)F)C2CC2)cc1SCC(F)(F)F has chromatographic logP reaching or exceeding 4?
// result rule met

====

- Tested on: greenhouse red spider mite (Tetranychus urticae)
- PROCEDURE_DETAILS: Tetranychus urticae spray test, OP-resistant (TETRUR), bean leaf disks
- Type: in vivo
- RECORDED_CONDITIONS: Tetranychus urticae, foliar, 144 h, application rate 500 g/ha, after 6 days; read-out: efficacy (spider mites killed)
MEASUREMENT_NAME: pest or weed control at 500 g/ha
Reply with the number, then its unit.

MOLECULE	pest or weed control at 500 g/ha
N/C(=N\c1cc([S+]([O-])CC(F)(F)F)c(Cl)cc1Cl)C(F)F (centres unmarked)	100%
Cc1cc(F)c(/N=C(\N)C2CCC2)cc1[S+]([O-])CC(F)(F)F (centres unmarked)	100%
Cc1cc(F)c(/N=C(\N)C2(C#N)CC2)cc1SCC(F)(F)F	90%

I need pest or weed control at 500 g/ha for every entry listed below, if you could help.
1. Cc1cc(F)c(/N=C(\N)C2CCCCC2)cc1SCC(F)(F)F
2. Cc1ccc(/N=C(/N(C)C)C(F)(F)F)cc1SCC(F)(F)F

// result
["90%", "100%"]

====

- PROCEDURE_DETAILS: logP by HPLC on reversed-phase columns (C 18), EEC Directive 79/831 Annex V.A8
- Format: physicochemical
- RECORDED_CONDITIONS: [a] LC-MS, acidic range, pH 2.7, 0.1% aqueous formic acid/acetonitrile; read-out: logP(HCOOH)
Mark Met for reported chromatographic logP of 2 or greater; mark Not met for anything smaller.

Solved entries:
MOLECULE	CLASS_ASSIGNMENT
O=C(Nc1ccc(F)cc1Cl)C(F)(F)F [VI-5]	Met
O=C(Nc1ccc(Br)cc1F)C(F)(F)F [VI-7]	Met
Cc1cc(F)c(/N=C2/NCCCS2)cc1SCC(F)(F)F [Ia-278]	Not met
O=C(Nc1ccc(Br)cc1Cl)C(F)(F)F [VI-3]	Met

Now look at this entry.
// query Is it the case that O=C(Nc1ccc(Br)cc1Br)C(F)(F)F [VI-4] has chromatographic logP reaching or exceeding 2?
// result Met

====

Please respond with reported chromatographic logP for every item in the list.
- PROCEDURE_DETAILS: logP by HPLC on reversed-phase columns (C 18), EEC Directive 79/831 Annex V.A8
- Assay type: physicochemical
- RECORDED_CONDITIONS: reversed-phase C18 HPLC column, pH 2.7, [a] LC-MS, acidic range, pH 2.7, 0.1% aqueous formic acid/acetonitrile; read-out: logP(HCOOH)
One number for each entry.

COMPOUND	chromatographic logP
Cc1cc(F)c(/N=C(/NCc2ccc(C(F)(F)F)cc2)C(F)(F)F)cc1SCC(F)(F)F	5.15
CN/C(=N/c1cc(SCC(F)(F)F)c(C)cc1F)c1ccc(C(F)(F)F)cc1	1.96
Cc1cc(F)c(/N=C2\CCCN2c2ccccc2)cc1SCC(F)(F)F	1.83

I need chromatographic logP for every entry listed below, if you could help.
1. CN/C(=N/c1cc([S+]([O-])CC(F)(F)F)c(Cl)cc1Cl)C(F)(F)F (stereo not shown)
2. Cc1cc(F)c(N=C2NCCS2)cc1[S+]([O-])CC(F)(F)F (stereo not shown)
3. Cc1cc(F)c(SCC(F)(F)F)cc1NC(=O)C(F)(F)F
4. Cc1cc(F)c(/N=C2\SCC(=O)N2CC(F)(F)F)cc1[S+]([O-])CC(F)(F)F (stereo not shown)
5. Cc1cc(F)c(/N=C(\N)c2cnccn2)cc1SCC(F)(F)F

// result
1: 3.32; 2: 0.8; 3: 3.16; 4: 2.93; 5: 1.24

I need chromatographic logP for every entry listed below, if you could help.
1. N/C(=N/c1ccc(Cl)c([S+]([O-])CC(F)(F)F)c1)C(F)(F)F (stereo not shown)
2. Cc1cc(F)c(/N=C(\N)c2cnccn2)cc1[S+]([O-])CC(F)(F)F (stereo not shown)
3. COc1ccc(N/C(=N/c2cc(SCC(F)(F)F)c(C)cc2F)C(F)(F)F)cc1

// result
2.25
0.84
4.2

I need chromatographic logP for every entry listed below, if you could help.
1. Cc1cc(F)c(/N=C(\NCC(F)(F)F)C2CC2)cc1SCC(F)(F)F
2. COc1ccc(N/C(=N/c2cc([S+]([O-])CC(F)(F)F)c(C)cc2F)C(F)(F)F)cc1 (stereo not shown)
3. Cc1cc(F)c(/N=C(\c2cccn2C)N(C)C)cc1SCC(F)(F)F
4. Cc1cc(F)c(/N=C2\CCCN2CC(F)(F)F)cc1SCC(F)(F)F

// result
1. 1.99
2. 3.04
3. 1.67
4. 2.32

I need chromatographic logP for every entry listed below, if you could help.
1. Cc1cc(F)c(/N=C(/N(C)C)C(F)(F)F)cc1[S+]([O-])CC(F)(F)F (stereo not shown)
2. Cc1cc(F)c(NC(=O)c2ccc(C(F)(F)F)cc2)cc1SCC(F)(F)F
3. Cc1cc(F)ccc1NC(=O)C(F)(F)F

// result
3.15
4.2
2.2

Documented chromatographic logP of Cc1cc(F)c(/N=C2\SCC(=O)N2CC(F)(F)F)cc1SCC(F)(F)F : 4.09
